I'd be grateful if you could share measured IC50 for these entries.
Target: mutant BRAF enzyme (BRAF-V600E) (Homo sapiens (Human), UniProt P15056, V600E)
Sequence (P15056 whole entry V600E): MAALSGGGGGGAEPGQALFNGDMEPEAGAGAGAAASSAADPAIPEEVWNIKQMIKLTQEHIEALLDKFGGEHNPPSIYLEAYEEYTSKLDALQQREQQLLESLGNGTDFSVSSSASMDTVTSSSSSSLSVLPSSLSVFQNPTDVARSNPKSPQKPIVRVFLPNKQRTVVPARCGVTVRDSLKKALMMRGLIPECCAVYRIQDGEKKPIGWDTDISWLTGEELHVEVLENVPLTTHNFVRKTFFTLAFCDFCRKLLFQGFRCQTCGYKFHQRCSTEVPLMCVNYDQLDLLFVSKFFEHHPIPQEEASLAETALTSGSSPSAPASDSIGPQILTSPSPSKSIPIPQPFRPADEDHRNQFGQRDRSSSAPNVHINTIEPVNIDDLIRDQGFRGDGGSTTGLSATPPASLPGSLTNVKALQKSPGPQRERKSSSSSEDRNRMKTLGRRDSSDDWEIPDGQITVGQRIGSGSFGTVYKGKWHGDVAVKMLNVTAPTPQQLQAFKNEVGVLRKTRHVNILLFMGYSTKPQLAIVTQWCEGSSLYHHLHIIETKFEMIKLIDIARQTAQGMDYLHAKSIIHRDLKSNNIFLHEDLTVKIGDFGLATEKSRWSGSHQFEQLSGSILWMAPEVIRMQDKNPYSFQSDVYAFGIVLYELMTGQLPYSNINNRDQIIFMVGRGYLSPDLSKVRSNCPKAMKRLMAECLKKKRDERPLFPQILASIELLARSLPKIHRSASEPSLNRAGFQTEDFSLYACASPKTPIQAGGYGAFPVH
Test: RAF inhibition assay (TB-PMAP2K1 kit), BRAF-V600E
Details: FLUORESCEIN-MAP2K1 substrate, 60 min reaction
// return numeric value only (unit: nM, not printed)

IC50 for mutant BRAF enzyme (BRAF-V600E) (Homo sapiens (Human), UniProt P15056, V600E) with input Cc1ccc2c(Nc3ccc(C#N)cc3F)nccc2c1NC(=O)c1cccc2c(N)ncnc12 equals 12.4

IC50 for mutant BRAF enzyme (BRAF-V600E) (Homo sapiens (Human), UniProt P15056, V600E) with input Cc1ccc2c(Nc3cccc(OCCN4CCOCC4)c3F)nccc2c1NC(=O)c1cccc2c(N)ncnc12 equals 21.9

IC50 for mutant BRAF enzyme (BRAF-V600E) (Homo sapiens (Human), UniProt P15056, V600E) with input Cc1ccc2c(Nc3cccc(Cl)c3F)nccc2c1NC(=O)c1cc(OCCN2CCOCC2)cc2c(N)ncnc12 equals 14.7

IC50 for mutant BRAF enzyme (BRAF-V600E) (Homo sapiens (Human), UniProt P15056, V600E) with input Cc1ccc2c(Nc3cccc(Cl)c3F)nccc2c1NC(=O)c1cccc2c(N)ncnc12 equals 4.71

IC50 for mutant BRAF enzyme (BRAF-V600E) (Homo sapiens (Human), UniProt P15056, V600E) with input Cc1ccc2c(Nc3cccc(Cl)c3F)nccc2c1NC(=O)c1cc(N2CCN(C)CC2)cc2c(N)ncnc12 equals 11

IC50 for mutant BRAF enzyme (BRAF-V600E) (Homo sapiens (Human), UniProt P15056, V600E) with input Cc1ccc(Nc2nccc3c(NC(=O)c4cccc5c(N)ncnc45)c(C)ccc23)c(F)c1 equals 11.7

IC50 for mutant BRAF enzyme (BRAF-V600E) (Homo sapiens (Human), UniProt P15056, V600E) with input Cc1ccc2c(Cc3ccc(C(F)(F)F)cc3)nccc2c1NC(=O)c1csc2c(N)ncnc12 equals 26.9

IC50 for mutant BRAF enzyme (BRAF-V600E) (Homo sapiens (Human), UniProt P15056, V600E) with input COc1ccc(Nc2nccc3c(NC(=O)c4cnc5c(N)ncnn45)c(C)ccc23)c(F)c1 equals 2.88

IC50 for mutant BRAF enzyme (BRAF-V600E) (Homo sapiens (Human), UniProt P15056, V600E) with input Cc1ccc2c(Nc3cc(Br)ccc3F)nccc2c1NC(=O)c1cccc2c(N)ncnc12 equals 20.9

IC50 for mutant BRAF enzyme (BRAF-V600E) (Homo sapiens (Human), UniProt P15056, V600E) with input Cc1ccc2c(C(O)c3ccccc3Cl)nccc2c1NC(=O)c1csc2c(N)ncnc12 (stereo not shown) equals 6.3

IC50 for mutant BRAF enzyme (BRAF-V600E) (Homo sapiens (Human), UniProt P15056, V600E) with input Cc1ccc2c(C(O)c3cccc(C(F)(F)F)c3)nccc2c1NC(=O)c1csc2c(N)ncnc12 (stereo not shown) equals 13.2

IC50 for mutant BRAF enzyme (BRAF-V600E) (Homo sapiens (Human), UniProt P15056, V600E) with input Cc1ccc2c(Nc3cc(S(C)(=O)=O)ccc3F)nccc2c1NC(=O)c1cccc2c(N)ncnc12 equals 7.58

IC50 for mutant BRAF enzyme (BRAF-V600E) (Homo sapiens (Human), UniProt P15056, V600E) with input Cc1ccc2c(Nc3ccc4c(c3)OCCO4)nccc2c1NC(=O)c1cccc2c(N)ncnc12 equals 7.9

IC50 for mutant BRAF enzyme (BRAF-V600E) (Homo sapiens (Human), UniProt P15056, V600E) with input Cc1ccc2c(Cc3ccc(Cl)c(CN(C)C)c3)nccc2c1NC(=O)c1csc2c(N)ncnc12 equals 35.8

IC50 for mutant BRAF enzyme (BRAF-V600E) (Homo sapiens (Human), UniProt P15056, V600E) with input Cc1ccc2c(Nc3ccc(F)cc3F)nccc2c1NC(=O)c1cc(F)cc2c(N)ncnc12 equals 9.02

IC50 for mutant BRAF enzyme (BRAF-V600E) (Homo sapiens (Human), UniProt P15056, V600E) with input Cc1ccc2c(Nc3cc(Cl)ccc3F)nccc2c1NC(=O)c1cccc2c(N)ncnc12 equals 11.9

---

I'd be grateful if you could share measured IC50 for these entries.
Target: mutant BRAF enzyme (BRAF-V600E) (Homo sapiens (Human), UniProt P15056, V600E)
Experiment: RAF inhibition assay (TB-PMAP2K1 kit), BRAF-V600E
Details: FLUORESCEIN-MAP2K1 substrate, 60 min reaction
// return numeric value only (unit: nM, not printed)

The compound listed as Cc1ccc2c(Nc3cccc(Cl)c3F)nccc2c1NC(=O)c1nccc2c(N)ncnc12 shows IC50 equal to 2.57

The compound listed as Cc1ccc2c(C(C)Oc3ccccc3)nccc2c1NC(=O)c1csc2c(N)ncnc12 (stereo not shown) shows IC50 equal to 50.4

The compound listed as Cc1ccc2c(Nc3cccc(Cl)c3)nccc2c1NC(=O)c1cnc2c(N)ncnn12 shows IC50 equal to 1.5

The compound listed as Cc1ccc2c(C(=O)c3ccc(Cl)cc3)nccc2c1NC(=O)c1csc2c(N)ncnc12 shows IC50 equal to 5.99

---

Target: mutant BRAF enzyme (BRAF-V600E) (Homo sapiens (Human), UniProt P15056, V600E)
Test: RAF inhibition assay (TB-PMAP2K1 kit), BRAF-V600E
Settings: FLUORESCEIN-MAP2K1 substrate, 60 min reaction
Under this convention, rule met denotes IC50 strictly below 0.01 µM and rule not met denotes IC50 at or above 0.01 µM.

Query block: Quick check: does CCOc1ccc(Nc2nccc3c(NC(=O)c4cccc5c(N)ncnc45)c(C)ccc23)c(F)c1 [Compound 74] have IC50 under 0.01 µM?
Result block: rule not met

Query block: Quick check: does COc1ccc(Nc2nccc3c(NC(=O)c4cccc5c(N)ncnc45)c(C)ccc23)cc1OC [Compound 68] have IC50 under 0.01 µM?
Result block: rule not met

Query block: Quick check: does Cc1ccc2c(Nc3ccc(Cl)c(F)c3F)nccc2c1NC(=O)c1cnc2c(N)ncnn12 [Compound 70] have IC50 under 0.01 µM?
Result block: rule not met

Query block: Quick check: does Cc1ccc2c(Nc3cccc(Cl)c3)nccc2c1NC(=O)c1cccc2c(N)ncnc12 [Compound 38] have IC50 under 0.01 µM?
Result block: rule met

Query block: Quick check: does Cc1ccc2c(Cc3ccccc3Cl)nccc2c1NC(=O)c1cccc2c(N)ncnc12 [Compound 25] have IC50 under 0.01 µM?
Result block: rule met

---

I'd be grateful if you could share measured pIC50 for these entries.
Biological target: mutant BRAF enzyme (BRAF-V600E) (Homo sapiens (Human), UniProt P15056, V600E)
Experiment: RAF inhibition assay (TB-PMAP2K1 kit), BRAF-V600E
Details: FLUORESCEIN-MAP2K1 substrate, 60 min reaction
Formally, pIC50 is defined as -log10 of the concentration c, with c in mol/L.

The molecule listed as COc1ccc(Nc2nccc3c(NC(=O)c4cnc5c(N)ncnn45)c(C)ccc23)cc1Cl shows pIC50 equal to 8.50

The molecule listed as COc1ccc(F)c(Nc2nccc3c(NC(=O)c4cccc5c(N)ncnc45)c(C)ccc23)c1 shows pIC50 equal to 8.33

The molecule listed as COc1ccc(Nc2nccc3c(NC(=O)c4cccc5c(N)ncnc45)c(C)ccc23)cn1 shows pIC50 equal to 8.25

The molecule listed as Cc1ccc2c(Cc3ccccc3Cl)nccc2c1NC(=O)c1csc2c(N)ncnc12 shows pIC50 equal to 8.33

The molecule listed as Cc1ccc2c(C(=O)c3ccccc3Cl)nccc2c1NC(=O)c1csc2c(N)ncnc12 shows pIC50 equal to 7.48

The molecule listed as Cc1ccc2c(Nc3ccc(Cl)cc3F)nccc2c1NC(=O)c1cnc2c(N)ncnn12 shows pIC50 equal to 8.54

The molecule listed as Cc1ccc2c(Nc3ccc(F)cc3F)nccc2c1NC(=O)c1cccc2c(N)ncnc12 shows pIC50 equal to 8.06

The molecule listed as Cc1ccc2c(Nc3cccc(Cl)c3F)nccc2c1NC(=O)c1cc(F)cc2c(N)ncnc12 shows pIC50 equal to 7.79

The molecule listed as Nc1ncnc2c(C(=O)Nc3c(F)ccc4c(Nc5cccc(Cl)c5F)nccc34)cccc12 shows pIC50 equal to 8.27

The molecule listed as Cc1ccc2c(C(O)c3ccc(Cl)cc3)nccc2c1NC(=O)c1csc2c(N)ncnc12 (centres unmarked) shows pIC50 equal to 7.97

---

I'd be grateful if you could share measured pIC50 for these entries.
Molecular target: mutant BRAF enzyme (BRAF-V600E) (Homo sapiens (Human), UniProt P15056, V600E)
Test: RAF inhibition assay (TB-PMAP2K1 kit), BRAF-V600E
Conditions: FLUORESCEIN-MAP2K1 substrate, 60 min reaction
Formally, pIC50 is defined as -log10 of the concentration c, with c in mol/L.

The compound listed as Cc1ccc2c(Nc3c(F)c(F)cc(F)c3F)nccc2c1NC(=O)c1cccc2c(N)ncnc12 shows pIC50 equal to 7.86

The compound listed as Cc1ccc2c(Nc3cc(F)ccc3F)nccc2c1NC(=O)c1cccc2c(N)ncnc12 shows pIC50 equal to 8.16

The compound listed as Cc1ccc2c(Nc3cccc(C#N)c3F)nccc2c1NC(=O)c1cccc2c(N)ncnc12 shows pIC50 equal to 7.82

The compound listed as Cc1ccc2c(Cc3cccc(C(F)(F)F)c3)nccc2c1NC(=O)c1csc2c(N)ncnc12 shows pIC50 equal to 7.86

The compound listed as Cc1ccc2c(Nc3ccc(CN(C)C)cc3)nccc2c1NC(=O)c1cccc2c(N)ncnc12 shows pIC50 equal to 8.07

The compound listed as Cc1ccc2c(Nc3cc(C#N)ccc3F)nccc2c1NC(=O)c1cccc2c(N)ncnc12 shows pIC50 equal to 7.87

The compound listed as Cc1ccc2c(Nc3cccc(Cl)c3F)ncnc2c1NC(=O)c1cccc2c(N)ncnc12 shows pIC50 equal to 7.91

The compound listed as Cc1ccc2c(Nc3cccc(Cl)c3F)nccc2c1NC(=O)c1cc(OCCO)cc2c(N)ncnc12 shows pIC50 equal to 7.92

The compound listed as Cc1ccc2c(Nc3ccc(Cl)c(CN(C)C)c3)nccc2c1NC(=O)c1cccc2c(N)ncnc12 shows pIC50 equal to 7.89
